- Test system: Radical scavenging activity
- procedure summary: Antioxidant activity assessed as DPPH radical scavenging activity after 30 mins
- Format: functional
So basically: is IC50 under 20 µg/mL? Then true (1). Not under? Then false (0).

compound="O=C1O[C@H]([C@@H](O)CO)C(O)=C1O [ASCORBIC ACID]" assigned_label="false (0)"
compound="O=C1/C(=C/c2ccc(O)c(O)c2)Oc2cc(O[C@@H]3O[C@H](CO)[C@@H](O)[C@H](O)[C@H]3O)ccc21 [SULFUREIN]" assigned_label="true (1)"
compound="COc1ccc(O)c(C(C)(C)C)c1.COc1ccc(O)cc1C(C)(C)C [BUTYLATED HYDROXYANISOLE]" assigned_label="false (0)"
compound="O=C(O)c1cc(O)c(O)c(O)c1 [GALLIC ACID]" assigned_label="true (1)"
compound=O=C1/C(=C(/C(=C2\Oc3cc(O)ccc3C2=O)c2ccc(O)c(O)c2)c2ccc(O)c(O)c2)Oc2cc(O)ccc21 assigned_label="true (1)"
compound="O=C1/C(=C/c2ccc(O)c(O)c2)Oc2cc(O)ccc21 [SULFURETIN]" assigned_label="true (1)"
compound="O=C(OC[C@H]1O[C@@H](OC(=O)c2cc(O)c(O)c(O)c2)[C@H](OC(=O)c2cc(O)c(O)c(O)c2)[C@@H](OC(=O)c2cc(O)c(O)c(O)c2)[C@@H]1OC(=O)c1cc(O)c(O)c(O)c1)c1cc(O)c(O)c(O)c1 [PENTAGALLOYL GLUCOSE]" assigned_label="true (1)"

Does the reported IC50 of COC(=O)c1cc(O)c(O)c(O)c1 [GALLIC ACID METHYL ESTER] stay below 20 µg/mL?
true (1)
